Target: Itk (Homo sapiens, UniProt Q08881)
Assay: ITK inhibition assay, radioactive-phosphate incorporation
Assay type: biochemical
Settings: [γ-33P]ATP, SAM68 peptide, 25° C.
Quantity: Ki

The molecule listed as CNc1ccc(C)c(-c2c[nH]c(=O)c(NC(=O)c3ccc(C(C)(C)C)cc3)c2)c1 shows Ki equal to 0.1 to 1 µM

The molecule listed as CC(C)Oc1ccc(C(=O)Nc2cc(-c3ccncc3)c[nH]c2=O)cc1 shows Ki equal to 0.1 to 1 µM

The molecule listed as CC(C)(C)c1ccc(C(=O)Nc2cc(-c3ccnc(N[C@@H]4CCNC4)n3)c[nH]c2=O)cc1 shows Ki equal to < 0.1 µM

Please find the next molecule below.
The molecule listed as CNc1cccc(-c2c[nH]c(=O)c(NC(=O)c3ccc(OCCN4CCNCC4)cc3)c2)n1 shows Ki equal to < 0.1 µM

* * *

Target: Itk (Homo sapiens, UniProt Q08881)
Sequence (Q08881 1-620): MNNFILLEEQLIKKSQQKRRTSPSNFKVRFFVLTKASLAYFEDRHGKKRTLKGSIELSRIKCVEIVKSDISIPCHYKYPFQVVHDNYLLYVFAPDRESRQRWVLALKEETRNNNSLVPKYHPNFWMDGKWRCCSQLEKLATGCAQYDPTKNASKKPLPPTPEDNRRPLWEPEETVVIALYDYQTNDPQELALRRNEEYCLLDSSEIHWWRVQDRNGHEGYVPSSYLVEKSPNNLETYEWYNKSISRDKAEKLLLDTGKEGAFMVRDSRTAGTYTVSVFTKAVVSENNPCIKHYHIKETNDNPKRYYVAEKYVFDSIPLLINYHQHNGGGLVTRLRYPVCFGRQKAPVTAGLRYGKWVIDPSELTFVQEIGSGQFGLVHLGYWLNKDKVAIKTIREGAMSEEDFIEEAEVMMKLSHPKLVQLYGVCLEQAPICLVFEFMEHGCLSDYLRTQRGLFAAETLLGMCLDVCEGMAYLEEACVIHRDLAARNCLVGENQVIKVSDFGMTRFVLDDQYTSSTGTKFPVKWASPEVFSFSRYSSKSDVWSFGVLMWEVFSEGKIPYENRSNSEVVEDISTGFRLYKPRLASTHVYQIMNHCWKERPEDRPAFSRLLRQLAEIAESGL
Assay: ITK inhibition assay, radioactive-phosphate incorporation
Format: biochemical
Details: [γ-33P]ATP, SAM68 peptide, 25° C.
pKi: −log10 of the molar value.
Quantity: pKi

The compound listed as CNc1cc(-c2c[nH]c(=O)c(NC(=O)c3ccc(C4=CCNCC4)cc3)c2)ncn1 shows pKi equal to 6.00 to 7.00

The compound listed as CNCCNc1cccc(-c2c[nH]c(=O)c(NC(=O)c3ccc(C(C)(C)C)cc3)c2)n1 shows pKi equal to > 7.00

***
The compound listed as CNCCNc1cccc(-c2c[nH]c(=O)c(NC(=O)c3ccc(N4CCCCC4)cc3)c2)c1 shows pKi equal to 6.00 to 7.00

The compound listed as CNCCNc1cccc(-c2c[nH]c(=O)c(NC(=O)c3ccc(N4CCCCC4)cc3)c2)n1 [II-60] shows pKi equal to 6.00 to 7.00

The compound listed as CNc1cncc(-c2c[nH]c(=O)c(NC(=O)c3ccc(N4CCN(C)CC4)cc3)c2)n1 shows pKi equal to > 7.00

The compound listed as CNc1cncc(-c2c[nH]c(=O)c(NC(=O)c3ccc(N4CC[C@@H](N(C)C)C4)cc3)c2)n1 shows pKi equal to > 7.00

The compound listed as CNc1ccnc(-c2c[nH]c(=O)c(NC(=O)c3ccc(N4CCCCC4)cc3)c2)n1 shows pKi equal to 6.00 to 7.00

The compound listed as CNCCNc1cc(-c2c[nH]c(=O)c(NC(=O)c3ccc(C(C)(C)C)cc3)c2)ncn1 shows pKi equal to 6.00 to 7.00

The compound listed as CNc1cncc(-c2c[nH]c(=O)c(NC(=O)c3ccc(N4CCC(CCO)CC4)cc3)c2)n1 shows pKi equal to > 7.00

The compound listed as CNc1cc(-c2c[nH]c(=O)c(NC(=O)c3ccc(C(C)(C)C)cc3)c2)nc(SC)n1 shows pKi equal to 6.00 to 7.00

The compound listed as CNc1cc(-c2c[nH]c(=O)c(NC(=O)c3ccc(C(C)(C)C)cc3)c2)ncn1 shows pKi equal to > 7.00

The compound listed as CNc1cc(F)cc(-c2c[nH]c(=O)c(NC(=O)c3ccc(N4CCC[C@H]4CN4CCCC4)cc3)c2)n1 shows pKi equal to > 7.00

The compound listed as O=C(Nc1cc(-c2ccncc2)c[nH]c1=O)c1ccc(N2CCNCC2)cc1 shows pKi equal to > 7.00

The compound listed as CNc1cc(-c2c[nH]c(=O)c(NC(=O)c3ccc(N4CCC[C@H]4CN4CCCC4)cc3)c2)ccn1 shows pKi equal to > 7.00

The compound listed as O=C(Nc1ccc(N2CCNCC2)cc1)c1cc(-c2ccncc2)c[nH]c1=O shows pKi equal to > 7.00

The compound listed as CNc1cccc(-c2c[nH]c(=O)c(NC(=O)c3ccc(N4CCCCC4)cc3)c2)c1 shows pKi equal to 6.00 to 7.00

The compound listed as O=C(Nc1cc(-c2cccc(NC(CO)CO)n2)c[nH]c1=O)c1ccc(N2CCCCC2)cc1 shows pKi equal to 6.00 to 7.00
